Biological target: LRRK2 (human) (UniProt Q5S007)
Sequence (Q5S007 whole entry, looked up): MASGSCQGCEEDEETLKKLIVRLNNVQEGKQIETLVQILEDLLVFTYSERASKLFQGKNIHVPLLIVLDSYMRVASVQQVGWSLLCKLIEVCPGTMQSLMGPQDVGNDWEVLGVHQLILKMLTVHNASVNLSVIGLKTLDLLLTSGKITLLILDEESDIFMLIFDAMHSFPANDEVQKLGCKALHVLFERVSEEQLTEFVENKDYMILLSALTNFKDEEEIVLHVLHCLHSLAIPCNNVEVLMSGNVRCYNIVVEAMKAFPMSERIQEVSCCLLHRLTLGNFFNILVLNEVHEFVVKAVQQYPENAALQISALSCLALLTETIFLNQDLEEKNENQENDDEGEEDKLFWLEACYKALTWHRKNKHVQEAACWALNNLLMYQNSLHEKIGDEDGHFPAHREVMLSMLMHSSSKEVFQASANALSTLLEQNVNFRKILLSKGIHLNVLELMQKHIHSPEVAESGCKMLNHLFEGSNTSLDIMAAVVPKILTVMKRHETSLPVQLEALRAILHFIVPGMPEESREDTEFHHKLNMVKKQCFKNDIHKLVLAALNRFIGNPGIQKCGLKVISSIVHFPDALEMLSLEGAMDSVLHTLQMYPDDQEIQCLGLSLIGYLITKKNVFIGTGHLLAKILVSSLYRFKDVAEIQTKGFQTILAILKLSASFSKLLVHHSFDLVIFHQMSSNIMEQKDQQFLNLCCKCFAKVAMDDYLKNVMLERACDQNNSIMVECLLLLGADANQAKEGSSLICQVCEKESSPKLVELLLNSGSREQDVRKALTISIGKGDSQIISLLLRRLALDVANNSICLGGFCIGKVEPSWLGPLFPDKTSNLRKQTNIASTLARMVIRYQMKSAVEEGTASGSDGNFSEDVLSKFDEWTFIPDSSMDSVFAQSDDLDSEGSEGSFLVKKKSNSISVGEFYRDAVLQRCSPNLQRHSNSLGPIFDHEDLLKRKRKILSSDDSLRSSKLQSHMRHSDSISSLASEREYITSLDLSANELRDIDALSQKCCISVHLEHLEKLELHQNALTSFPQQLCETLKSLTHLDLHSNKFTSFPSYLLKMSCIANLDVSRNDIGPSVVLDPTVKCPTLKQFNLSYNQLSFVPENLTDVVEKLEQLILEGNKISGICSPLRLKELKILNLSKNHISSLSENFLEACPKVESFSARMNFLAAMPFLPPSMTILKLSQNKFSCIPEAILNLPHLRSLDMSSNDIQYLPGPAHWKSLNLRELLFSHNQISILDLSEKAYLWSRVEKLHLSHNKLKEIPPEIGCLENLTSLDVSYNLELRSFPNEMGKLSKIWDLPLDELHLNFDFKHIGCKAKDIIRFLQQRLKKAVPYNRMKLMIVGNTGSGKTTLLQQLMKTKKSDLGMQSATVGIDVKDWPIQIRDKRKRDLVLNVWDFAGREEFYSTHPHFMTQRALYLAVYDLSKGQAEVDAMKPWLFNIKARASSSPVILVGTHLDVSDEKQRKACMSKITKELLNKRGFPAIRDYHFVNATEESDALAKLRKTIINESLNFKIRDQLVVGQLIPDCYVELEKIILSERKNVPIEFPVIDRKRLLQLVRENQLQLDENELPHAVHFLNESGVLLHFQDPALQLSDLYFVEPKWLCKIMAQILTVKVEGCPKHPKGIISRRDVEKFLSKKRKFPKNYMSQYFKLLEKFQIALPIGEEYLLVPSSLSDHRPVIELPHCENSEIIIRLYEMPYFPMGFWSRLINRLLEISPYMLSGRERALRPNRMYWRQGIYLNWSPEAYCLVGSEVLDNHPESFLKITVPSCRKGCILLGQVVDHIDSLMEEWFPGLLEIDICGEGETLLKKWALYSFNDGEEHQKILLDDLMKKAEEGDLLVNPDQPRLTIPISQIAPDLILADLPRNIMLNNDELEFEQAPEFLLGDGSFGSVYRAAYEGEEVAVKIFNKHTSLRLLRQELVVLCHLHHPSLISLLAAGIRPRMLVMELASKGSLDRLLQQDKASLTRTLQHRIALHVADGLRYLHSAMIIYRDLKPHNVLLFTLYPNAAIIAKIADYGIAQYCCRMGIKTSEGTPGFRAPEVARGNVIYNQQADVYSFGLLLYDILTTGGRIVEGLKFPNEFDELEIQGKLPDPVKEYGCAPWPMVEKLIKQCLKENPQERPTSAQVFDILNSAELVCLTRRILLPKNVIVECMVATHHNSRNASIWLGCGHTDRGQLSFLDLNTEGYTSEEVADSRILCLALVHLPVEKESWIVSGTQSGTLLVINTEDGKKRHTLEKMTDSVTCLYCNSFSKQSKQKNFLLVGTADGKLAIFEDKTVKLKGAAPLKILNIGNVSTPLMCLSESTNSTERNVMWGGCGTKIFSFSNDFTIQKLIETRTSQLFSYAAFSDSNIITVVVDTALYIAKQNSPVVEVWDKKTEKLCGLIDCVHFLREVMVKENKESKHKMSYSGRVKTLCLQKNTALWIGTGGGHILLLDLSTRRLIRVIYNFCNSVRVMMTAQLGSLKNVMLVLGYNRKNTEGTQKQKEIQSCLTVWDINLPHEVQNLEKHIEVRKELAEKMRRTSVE
Test: radiometric filter-binding kinase assay, Kinase HotSpot
Conditions: compound 0.5 µM; ATP 10 µM
parameter measured: residual activity (%)
# number only, unit % dropped from output

# input compound: N#Cc1c(NC(=O)c2cccc3ccccc23)sc2c1CCCC2 ; wanted: its residual activity
100

# input compound: Nc1ncnc2c1cnn2-c1ccccc1 ; wanted: its residual activity
99.3

# input compound: COc1cc2c(N3CCN(C(=O)Nc4ccc(OC(C)C)cc4)CC3)ncnc2cc1OCCCN1CCCCC1 ; wanted: its residual activity
123

# input compound: COc1cc2c(Nc3ccc(Br)cc3F)ncnc2cc1OCC1CCN(C)CC1 ; wanted: its residual activity
113

# input compound: CCc1nc(-c2ccc(OC)cc2)[nH]c1-c1ccncc1 ; wanted: its residual activity
96.7

# input compound: FC(F)(F)c1ccc(/C=C/c2nc(COc3ccc(CCCCn4ccnn4)cc3)co2)cc1 ; wanted: its residual activity
94.8

# input compound: CCCCc1c(-c2ccc(O)cc2)[nH]c2nccnc12 ; wanted: its residual activity
80

# input compound: O=C(O)c1ccc2c3c1cccc3c(=O)n1c3ccccc3nc21 ; wanted: its residual activity
70.1

# input compound: O=c1c(-c2ccc(F)cc2)c(-c2ccncc2)[nH]n1-c1ccc(Cl)cc1 ; wanted: its residual activity
102

# input compound: N/C(=N\N=C/c1ccc(-c2cccc([N+](=O)[O-])c2)o1)N[N+](=O)[O-] ; wanted: its residual activity
91

# input compound: O=C1NC(=O)c2cc(Nc3ccc(F)cc3)c(Nc3ccc(F)cc3)cc21 ; wanted: its residual activity
99.8

# input compound: COc1cc2c(cc1OC)-c1[nH]nc(Nc3cccc(F)c3)c1C2 ; wanted: its residual activity
82.3

# input compound: O=c1cc(N2CCOCC2)oc2c(-c3ccccc3)cccc12 ; wanted: its residual activity
96.9

# input compound: N#C/C(=C1/Nc2ccccc2S1)c1ccnc(NCCc2cccnc2)n1 ; wanted: its residual activity
83.4

# input compound: COc1cccc(-c2cc(=O)c3ccccc3o2)c1N ; wanted: its residual activity
101

# input compound: O=C1NC(=O)c2c1c1c3ccccc3[nH]c1c1[nH]c3cc(Br)ccc3c21 ; wanted: its residual activity
49.8

# input compound: c1ccc(-c2cnc(Nc3ccc(OCCN4CCCC4)cc3)s2)cc1 ; wanted: its residual activity
95.8

# input compound: O=S(=O)(NCCNC/C=C/c1ccc(Br)cc1)c1cccc2cnccc12 ; wanted: its residual activity
86.2

# input compound: CCOc1cc2ncnc(Nc3cccc(Br)c3)c2cc1OCC ; wanted: its residual activity
78.7

# input compound: O=c1c2ccccc2[nH]c(=S)n1CCN1CCC(=C(c2ccc(F)cc2)c2ccc(F)cc2)CC1 ; wanted: its residual activity
93.9

# input compound: O=C(c1ccccc1)c1ccc(N2CCOCC2)cc1O ; wanted: its residual activity
95.4

# input compound: O=c1[nH]c2ccccc2n1C1CCN(Cc2ccc(-c3nc4cc5[nH]cnc5cc4nc3-c3ccccc3)cc2)CC1 ; wanted: its residual activity
103

# input compound: Cc1cc(Nc2nc(-c3ccccc3)nc3ccccc23)n[nH]1 ; wanted: its residual activity
88.3

# input compound: N#CCCc1ccc2c(c1)-c1[nH]c3ccc([N+](=O)[O-])cc3c1CC(=O)N2 ; wanted: its residual activity
73.8

# input compound: Cn1cc(/C=C2\C(=O)Nc3ccc(S(N)(=O)=O)cc32)c2ccccc21 ; wanted: its residual activity
9.76

# input compound: COc1cc2ncnc(Nc3ccc(O)c(Br)c3)c2cc1OC ; wanted: its residual activity
82.7
